assay: Kinetics of T3 absorption after oral dosing in rats; total serum T3 by ELISA; format: in vivo, Sprague-Dawley rats; conditions: Sprague-Dawley, rat; Example 3; oral; T3 sodium 4 μg/kg vs T4 sodium 16 plus T3 sodium 4 μg/kg (4:1); serum TT3; read-out: Tmax
TEST READOUT: Tmax
Note: a bare number is incomplete; add the unit.

stdin: Determine from records and report Tmax for N[C@@H](Cc1cc(I)c(Oc2ccc(O)c(I)c2)c(I)c1)C(=O)O [T3 sodium, liothyronine sodium]
stdout: 2.4 h

---

assay: Kinetics of T3 absorption after oral dosing in rats; total serum T3 by ELISA; format: in vivo, Sprague-Dawley rats; conditions: Sprague-Dawley, rat; Example 2; oral; T3 sodium 6 μg/kg vs T4 sodium 54 plus T3 sodium 6 μg/kg (9:1); serum TT3; read-out: Tmax
TEST READOUT: Tmax
Note: a bare number is incomplete; add the unit.

stdin: Determine from records and report Tmax for N[C@@H](Cc1cc(I)c(Oc2ccc(O)c(I)c2)c(I)c1)C(=O)O [T3 sodium, liothyronine sodium]
stdout: 2 h
